assay.target: ASH1L (Homo sapiens, UniProt Q9NR48)
Construct: purchased Reaction Biology
protocol.description: Radioisotope-based methyltransferase assay (selectivity)
Type: biochemical
measurement.setup: ASH1L, 1 μM SAM; read-out: IC50
result.type: IC50
// unit must come after the numeric part

Q: Please look at this compound and report its IC50: Cc1c(C(=O)NC(CCC2CC2)C(=O)Nc2ccc(C#N)cc2)[nH]c2c1C(=O)CC(C)(C)C2 (stereo not shown)
A: 79.4 µM

----------
protocol.description: Liver microsomal stability assay, human
Type: in vitro ADME
measurement.setup: human, liver microsomes, Metabolic stability, % remaining of RK-701, Human; Time 20; replicate values
result.type: remaining at 20 min, 1 µM (%)
Answer format: numeric, % implied, no suffix.

Q: Please look at this compound and report its remaining at 20 min, 1 µM: Cc1c(C(=O)NC(CCC2CC2)C(=O)Nc2ccc(C#N)cc2)[nH]c2c1C(=O)CC(C)(C)C2 (stereo not shown)
A: 80.5

----------
assay.target: SUV420H1TV2 (Homo sapiens, UniProt Q4FZB7)
Construct: purchased Reaction Biology
Sequence (Q4FZB7 1-393 isoform Q4FZB7-2): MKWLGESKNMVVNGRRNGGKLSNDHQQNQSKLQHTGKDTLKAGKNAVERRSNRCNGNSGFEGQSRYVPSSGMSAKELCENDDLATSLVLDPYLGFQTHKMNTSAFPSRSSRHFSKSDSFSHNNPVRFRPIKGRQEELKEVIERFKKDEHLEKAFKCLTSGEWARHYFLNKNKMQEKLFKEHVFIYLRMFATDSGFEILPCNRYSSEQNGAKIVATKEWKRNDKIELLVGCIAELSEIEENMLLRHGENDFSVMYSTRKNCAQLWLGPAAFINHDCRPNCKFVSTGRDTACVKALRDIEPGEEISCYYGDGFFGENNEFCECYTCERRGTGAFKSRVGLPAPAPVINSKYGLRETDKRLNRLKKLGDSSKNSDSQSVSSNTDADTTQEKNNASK
protocol.description: Radioisotope-based methyltransferase assay (selectivity)
Type: biochemical
measurement.setup: SUV420H1TV2, 1 μM SAM
result.type: IC50

Q: Please tell me the measured IC50 for Cc1c(C(=O)NC(CCC2CC2)C(=O)Nc2ccc(C#N)cc2)[nH]c2c1C(=O)CC(C)(C)C2 (stereo not shown) [RK-701] ; system: SUV420H1TV2 (Homo sapiens, UniProt Q4FZB7).
A: > 100 µM

----------
protocol.description: Liver microsomal stability assay, dog
Format: in vitro ADME
measurement.setup: dog, liver microsomes; Dug; read-out: Metabolic stability in liver microsomes CLint
result.type: microsomal CLint at 1 μM (µL/min/mg)
Answer format: numeric, µL/min/mg implied, no suffix.

Q: Please look at this compound and report its microsomal CLint at 1 μM: Cc1c(C(=O)NC(CCC2CC2)C(=O)Nc2ccc(C#N)cc2)[nH]c2c1C(=O)CC(C)(C)C2 (stereo not shown)
A: 28

----------
assay.target: G9a (Homo sapiens)
Sequence (Q96KQ7 whole entry): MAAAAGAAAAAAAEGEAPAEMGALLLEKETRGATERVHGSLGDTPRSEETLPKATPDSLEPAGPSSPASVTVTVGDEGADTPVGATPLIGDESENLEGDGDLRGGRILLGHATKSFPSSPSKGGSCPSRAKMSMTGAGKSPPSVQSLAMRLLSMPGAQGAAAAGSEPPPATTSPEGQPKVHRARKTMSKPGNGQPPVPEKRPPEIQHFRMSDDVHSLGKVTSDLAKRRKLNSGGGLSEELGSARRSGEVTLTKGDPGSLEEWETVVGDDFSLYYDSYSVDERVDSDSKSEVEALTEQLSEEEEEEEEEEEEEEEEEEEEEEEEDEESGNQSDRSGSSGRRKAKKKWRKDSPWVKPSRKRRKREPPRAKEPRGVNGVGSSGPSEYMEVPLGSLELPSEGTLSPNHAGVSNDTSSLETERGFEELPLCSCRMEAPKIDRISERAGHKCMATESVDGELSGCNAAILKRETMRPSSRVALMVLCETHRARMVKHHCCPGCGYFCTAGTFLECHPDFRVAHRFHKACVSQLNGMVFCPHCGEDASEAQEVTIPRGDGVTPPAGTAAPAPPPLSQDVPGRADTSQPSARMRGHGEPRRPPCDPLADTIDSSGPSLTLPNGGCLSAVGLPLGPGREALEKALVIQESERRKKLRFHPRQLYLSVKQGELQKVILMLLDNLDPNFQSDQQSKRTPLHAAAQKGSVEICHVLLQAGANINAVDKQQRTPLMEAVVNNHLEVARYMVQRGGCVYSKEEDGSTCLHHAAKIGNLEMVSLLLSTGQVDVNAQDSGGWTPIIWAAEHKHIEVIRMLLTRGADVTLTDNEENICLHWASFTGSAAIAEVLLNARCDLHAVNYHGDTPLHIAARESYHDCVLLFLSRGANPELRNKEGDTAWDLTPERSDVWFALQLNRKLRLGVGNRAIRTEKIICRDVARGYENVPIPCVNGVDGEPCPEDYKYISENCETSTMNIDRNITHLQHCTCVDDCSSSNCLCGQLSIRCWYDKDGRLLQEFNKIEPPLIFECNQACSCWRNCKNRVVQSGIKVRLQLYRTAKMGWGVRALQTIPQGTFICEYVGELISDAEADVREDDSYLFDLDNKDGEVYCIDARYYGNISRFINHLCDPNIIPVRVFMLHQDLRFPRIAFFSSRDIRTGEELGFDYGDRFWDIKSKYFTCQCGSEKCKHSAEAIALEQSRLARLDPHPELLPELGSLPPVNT
protocol.description: Radioisotope-based methyltransferase assay (selectivity)
measurement.setup: 1 μM SAM
result.type: pIC50
Would you please state pIC50, meaning minus log10 of the concentration in mol/L, as a bare number?

Q: Please tell me the measured pIC50 for Cc1c(C(=O)NC(CCC2CC2)C(=O)Nc2ccc(C#N)cc2)[nH]c2c1C(=O)CC(C)(C)C2 (stereo not shown) [RK-701] ; system: G9a (Homo sapiens).
A: 7.64

----------
protocol.description: Cell viability assay (WST-8), H9c2
Assay type: cell-based, rat
measurement.setup: rat, H9c2 myoblast cells, 10.0 μM; control (0 μM) = 100
result.type: viability at 10 μM (%)
Answer format: numeric, % implied, no suffix.

Q: Please look at this compound and report its viability at 10 μM: `Cc1c(C(=O)N[C@H](CCC2CC2)C(=O)Nc2ccc(C#N)cc2)[nH]c2c1C(=O)CC(C)(C)C2`
A: 106

----------
assay.target: PRMT5/MEP50 (Homo sapiens, UniProt O14744)
Sequence (O14744 whole entry): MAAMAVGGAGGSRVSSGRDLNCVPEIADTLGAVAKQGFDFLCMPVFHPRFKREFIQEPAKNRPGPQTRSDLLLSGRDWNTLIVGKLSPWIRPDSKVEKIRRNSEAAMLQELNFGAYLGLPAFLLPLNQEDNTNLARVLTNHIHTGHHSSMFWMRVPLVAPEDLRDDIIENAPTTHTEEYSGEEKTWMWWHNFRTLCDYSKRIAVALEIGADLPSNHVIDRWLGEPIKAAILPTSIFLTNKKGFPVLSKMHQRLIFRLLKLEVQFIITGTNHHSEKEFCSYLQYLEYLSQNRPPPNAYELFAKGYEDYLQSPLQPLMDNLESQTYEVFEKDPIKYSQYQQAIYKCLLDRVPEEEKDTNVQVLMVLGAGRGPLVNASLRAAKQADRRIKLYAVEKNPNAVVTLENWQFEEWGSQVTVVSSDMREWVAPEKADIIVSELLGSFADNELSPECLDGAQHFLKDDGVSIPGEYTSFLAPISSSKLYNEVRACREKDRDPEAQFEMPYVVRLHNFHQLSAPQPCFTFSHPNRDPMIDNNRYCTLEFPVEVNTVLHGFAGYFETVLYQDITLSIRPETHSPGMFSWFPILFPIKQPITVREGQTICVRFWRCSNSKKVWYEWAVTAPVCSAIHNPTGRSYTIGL
Sequence (Q9BQA1 whole entry partner): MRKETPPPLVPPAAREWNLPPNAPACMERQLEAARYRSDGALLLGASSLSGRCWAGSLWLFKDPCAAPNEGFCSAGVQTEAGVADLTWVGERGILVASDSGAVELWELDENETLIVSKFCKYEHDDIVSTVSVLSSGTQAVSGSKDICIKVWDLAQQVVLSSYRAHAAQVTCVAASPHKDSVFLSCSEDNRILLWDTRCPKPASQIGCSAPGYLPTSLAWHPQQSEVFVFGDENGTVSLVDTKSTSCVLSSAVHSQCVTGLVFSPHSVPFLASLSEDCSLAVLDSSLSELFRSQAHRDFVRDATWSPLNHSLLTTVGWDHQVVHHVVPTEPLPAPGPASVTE
protocol.description: biochemical
result.type: IC50

Q: Please tell me the measured IC50 for Cc1c(C(=O)NC(CCC2CC2)C(=O)Nc2ccc(C#N)cc2)[nH]c2c1C(=O)CC(C)(C)C2 (stereo not shown) ; system: PRMT5/MEP50 (Homo sapiens, UniProt O14744).
A: > 100 µM
